experiment: Solubility of DXM in the 6:1 (v/v) DCM to THF spin dope co-solvent; format: physicochemical; conditions: 6:1 (v/v) DCM to THF co-solvent (spin dope), organic solvent or mixture; 6:1 (v/v) DCM to THF with PLLA; read-out: maximum solubility in co-solvent solution
READOUT NAME: solubility

Reported solubility for C[C@@H]1C[C@H]2[C@@H]3CCC4=CC(=O)C=C[C@]4(C)[C@@]3(F)[C@@H](O)C[C@]2(C)[C@@]1(O)C(=O)CO : what is it?
~3600 µg/mL

Origin of values: patent US9238011B2
